Reported half-life by item:
Details: buffer
PROPERTY: half-life (h)

{"COMPOUND": "C[C@@H](O)[C@H](NC(=O)CNC(=O)[C@H](CCCNC(=N)N)NC(=O)[C@H](CO)NC(=O)[C@H](Cc1c[nH]cn1)NC(=O)[C@@H](N)Cc1ccc(NC(=O)[C@@H]2CCCN2C(=O)[C@@H](N)C(C)(C)C)cc1)C(=O)N[C@@H](Cc1ccccc1)C(N)=O [Compounds 8]", "READOUT UNITS": "h", "REPORTED RESULT": 200}
{"COMPOUND": "C[C@@H](O)[C@H](NC(=O)CNC(=O)[C@H](CCCNC(=N)N)NC(=O)[C@H](CO)NC(=O)[C@H](Cc1c[nH]cn1)NC(=O)[C@@H](N)Cc1ccc(NC(=O)[C@@H]2CCCN2C(=O)C(C)(C)O)cc1)C(=O)N[C@@H](Cc1ccccc1)C(N)=O [Compounds 16]", "READOUT UNITS": "h", "REPORTED RESULT": 33}
{"COMPOUND": "C[C@@H](O)[C@H](NC(=O)CNC(=O)[C@H](CCCNC(=N)N)NC(=O)[C@H](CO)NC(=O)[C@H](Cc1c[nH]cn1)NC(=O)[C@@H](N)Cc1ccc(NC(=O)[C@@H]2CCCN2C(=O)C2(N)CCCCC2)cc1)C(=O)N[C@@H](Cc1ccccc1)C(N)=O [Compounds 17]", "READOUT UNITS": "h", "REPORTED RESULT": 0.1}
{"COMPOUND": "C[C@@H](O)[C@H](NC(=O)CNC(=O)[C@H](CCCNC(=N)N)NC(=O)[C@H](CO)NC(=O)[C@H](Cc1c[nH]cn1)NC(=O)[C@@H](N)Cc1ccc(NC(=O)[C@@H]2CCCN2C(=O)C(C)(C)N)cc1)C(=O)N[C@@H](Cc1ccccc1)C(N)=O [Compounds 15]", "READOUT UNITS": "h", "REPORTED RESULT": 1.15}
